B1: LINE1-full (parent)
chain: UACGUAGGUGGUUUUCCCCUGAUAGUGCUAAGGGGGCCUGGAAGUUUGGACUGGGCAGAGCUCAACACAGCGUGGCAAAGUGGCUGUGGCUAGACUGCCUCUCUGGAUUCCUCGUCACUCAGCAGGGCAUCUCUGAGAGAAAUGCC

Variants of: B1
assay_explanation: self-cleavage, relative activity (ratio to wild type); higher = more cleavage; in vitro, sequencing; the parent is a self-cleaving ribozyme
Everything with self-cleavage lower than 1 is Condition not met; everything else, including exactly 1, is Condition met.

| mutant | discrete_label |
| --- | --- |
| U109C C111U | Condition met |
| U29A U81A | Condition met |
| G54U G114U | Condition not met |

Exercise: Test whether the variant U100C A129U records self-cleavage of 1 or higher.
Solution: Condition met

Exercise: Test whether the variant U73C A141U records self-cleavage of 1 or higher.
Solution: Condition met

Exercise: Test whether the variant A42G G72A records self-cleavage of 1 or higher.
Solution: Condition met

Exercise: Test whether the variant G35A A140G records self-cleavage of 1 or higher.
Solution: Condition not met

Exercise: Test whether the variant A57C A138G records self-cleavage of 1 or higher.
Solution: Condition not met

Exercise: Test whether the variant U5C U26C records self-cleavage of 1 or higher.
Solution: Condition met

Exercise: Test whether the variant A50U A67G records self-cleavage of 1 or higher.
Solution: Condition not met

Exercise: Test whether the variant U39C U81C records self-cleavage of 1 or higher.
Solution: Condition met
